species on record: Rattus norvegicus; assay: Open TG-GATES - Regimen: Single; format: toxicity, organism-based, Sprague-Dawley; set-up: regimen Single, gender Male, age 6 weeks; settings: in vivo, po, 0 mg/kg, 24 h, tissue Plasma, route gavage, dose level Control
readoutType: RALB (g/dL)
Express it in g/dL; write the number only.

molecule	RALB, g/dL
CN1C(C(=O)Nc2ccccn2)=C(O)c2sc(Cl)cc2S1(=O)=O	3.5
Clc1c(Cl)c(Cl)c(Cl)c(Cl)c1Cl	3.4
C1CCC(C(CC2CCCCN2)C2CCCCC2)CC1 (centres undefined)	3.2
CCOC(=O)[C@H](CCc1ccccc1)N[C@@H](C)C(=O)N1CCC[C@H]1C(=O)O	3.9

Incoming: Fill blank: measured RALB of the molecule O=[N+]([O-])c1ccc2c(c1)Cc1ccccc1-2 is ____.
Outgoing: 2.8

Incoming: I have this molecule here, CC(=O)Nc1nnc(S(N)(=O)=O)s1 [ACETAZOLAMIDE] , and I need its recorded RALB.
Outgoing: 3

Incoming: I am curious: what RALB value has been reported for CN(C)[C@@H]1C(O)=C(C(N)=O)C(=O)[C@@]2(O)C(O)=C3C(=O)c4c(O)cccc4[C@@](C)(O)[C@H]3C[C@@H]12 ?
Outgoing: 3.9

Incoming: Need RALB, item Cc1cccc(Nc2ccccc2C(=O)O)c1C
Outgoing: 3.4

Incoming: What value of measured RALB is listed for C#C[C@]1(O)CC[C@H]2[C@@H]3CCC4=Cc5oncc5C[C@]4(C)[C@H]3CC[C@@]21C ?
Outgoing: 3

====

Neu overview
organism: Rattus norvegicus; assay: Open TG-GATES - Regimen: Daily Repeat; assay type: toxicity, organism-based, Sprague-Dawley; design: regimen Daily Repeat, gender Male, age 6 weeks; details: in vivo, po, 0 mg/kg, […], tissue Blood, route gavage, dose level Control, time 7 day

compound	readoutType	measValue
C1CCC(C(CC2CCCCN2)C2CCCCC2)CC1 (stereo not drawn) [PERHEXILINE]	Neu	15%
Cc1cccc(Nc2ccccc2C(=O)O)c1C [MEFENAMIC ACID]	Neu	13.4%

Next up:
Incoming: So what does the record say about Neu for Clc1c(Cl)c(Cl)c(Cl)c(Cl)c1Cl [PERCHLOROBENZENE] ?
Outgoing: 14.8%

====

species on record: Rattus norvegicus; test: Open TG-GATES - Regimen: Single; format: toxicity, organism-based, Sprague-Dawley; set-up: regimen Single, gender Male, age 6 weeks; conditions: in vivo, po, 0 mg/kg, 6 h, tissue Plasma, route gavage, dose level Control
Entries and their Ca values follow.
Lab note: write values as number then unit, every time.

compound	readoutType	measValue
CC(=O)Nc1nnc(S(N)(=O)=O)s1 [ACETAZOLAMIDE]	Ca	11 mg/dL
Clc1c(Cl)c(Cl)c(Cl)c(Cl)c1Cl [PERCHLOROBENZENE]	Ca	10.6 mg/dL
CN1C(C(=O)Nc2ccccn2)=C(O)c2sc(Cl)cc2S1(=O)=O [LORNOXICAM]	Ca	10.4 mg/dL

With those in mind, consider the next compound.
Incoming: Fill blank: measured Ca of the compound C1CCC(C(CC2CCCCN2)C2CCCCC2)CC1 (centres undefined) [PERHEXILINE] is ____.
Outgoing: 10.8 mg/dL

====

species on record: Rattus norvegicus; test: Open TG-GATES - Regimen: Daily Repeat; assay type: toxicity, organism-based, Sprague-Dawley; parameters: regimen Daily Repeat, gender Male, age 6 weeks; conditions: in vivo, po, 0 mg/kg, 72 h, tissue Plasma, route gavage, dose level Control, time 3 day
Listed here are compounds together with their documented IP.

Some compounds with known IP results, for comparison:
compound	IP
C#C[C@]1(O)CC[C@H]2[C@@H]3CCC4=Cc5oncc5C[C@]4(C)[C@H]3CC[C@@]21C [DANAZOL]	7.8 mg/dL
O=C(O)Cc1ccccc1Nc1c(Cl)cccc1Cl [DICLOFENAC]	7.8 mg/dL

Consider the additional compound presented here.
Incoming: What IP value was documented for this compound, CN(C)[C@@H]1C(O)=C(C(N)=O)C(=O)[C@@]2(O)C(O)=C3C(=O)c4c(O)cccc4[C@@](C)(O)[C@H]3C[C@@H]12 [TETRACYCLINE] ?
Outgoing: 8.2 mg/dL
